Please provide measured TGI for the entries that follow.
- Test system: COLO 205 colon
- testDetails: NCI tumour cell line growth inhibition, 48 h

## Input Would you mind telling me what TGI value was observed for Nc1nc2sc3ccccc3c(=O)n2n1 ?
## Output > 100 µM

## Input Look up TGI for this compound: O=C(Nc1nc(C23CC4CC(CC(C4)C2)C3)cs1)c1c(O)c2ccccc2[nH]c1=O
## Output > 100 µM

## Input Value lookup for TGI; key = COc1ccc(/C(Cl)=C(/c2ccc(O)cc2)c2ccc(OCCN(C)C)cc2)cc1
## Output 22.4 µM

## Input Consider the compound NC(=O)c1cccc(C2OC(COP(=O)(O)O)C(O)C2O)c1 (stereo unspecified) and give its measured TGI.
## Output > 50 µM

## Input Name the recorded TGI for N=C(N)c1ccc(OCCOCCOc2ccc(C(=N)N)cc2)cc1 .
## Output > 100 µM

## Input I am curious: what TGI value has been reported for CCOCN1COCN=C1NC#N ?
## Output 69.7 µM

## Input Which measured TGI value corresponds to C#CCn1ncc2c(SC)ncnc21 ?
## Output > 100 µM

## Input Fill in the blank: the reported TGI of O=S1(=O)C(c2ccccc2)C(N2CCCCC2)C1C1CC2c3ccccc3C1c1ccccc12 (stereo unspecified) is ____.
## Output > 100 µM

## Input # query: TGI of entry N#CC(/C(=N/NC(=O)C(=O)NN)C(=O)Nc1nc([N+](=O)[O-])cs1)c1ccc(Cl)cc1 (stereo unspecified)
## Output > 100 µM

## Input Give the measured TGI of CC1OC(n2ccc(=O)[nH]c2=O)C=C(OC(=O)c2ccccc2)C1=O (stereo unspecified) .
## Output > 100 µM

## Input Consider the compound shown here: Cn1c(-c2cccs2)cc(-c2ccccc2)c1-c1cccs1 What is its recorded TGI?
## Output > 100 µM

* * *

- Test system: MALME-3M melanoma
- testDetails: NCI tumour cell line growth inhibition, 48 h; in the data active means GI50 below about 0.43 µM; inactive means the rest
Give one outcome, nothing more. List: yes (1) = active, no (0) = inactive

## Input Recorded call for CC/C(=C(/c1ccc(OCCN(C)C)cc1)c1ccc(OC(=O)CCC(=O)c2c(C)[nH]c(/C=C3\N=C(c4ccc[nH]4)C=C3OC)c2C)cc1)c1ccccc1 ?
## Output no (0)

## Input For O=C(Nc1ccc(F)cc1)Nc1ccccc1CNc1nc(Nc2ccc(OCCN3CCCC3)cc2)ncc1Cl , which call appears in the assay record?
## Output no (0)

## Input Would you mind telling me which call this test gave CCC[CH2][Sn]([CH2]CCC)([O]C(=O)c1cc(F)ccc1F)[O][Sn]([CH2]CCC)([CH2]CCC)[O]C(=O)c1cc(F)ccc1F ?
## Output yes (1)

## Input Each molecule tested received a call. Report the one for CC(=O)N1N=C(c2ccc(Nc3nc(Nc4ccc(Cl)cc4)nc(Nc4ccc(Cl)cc4)n3)cc2)CC1c1ccc([N+](=O)[O-])cc1 (stereo not given) .
## Output no (0)

## Input What did this assay record as the result for CC(=O)Nc1ccc(/C=C/C(=O)c2ccccc2)cc1 ?
## Output no (0)

## Input Dear all, I need the recorded test outcome for CCOc1ccccc1NC(=O)c1cc2ccccc2cc1O , thank you.
## Output no (0)

## Input GET /call?item= CCN1/C(=C/C=C/c2n(-c3ccccc3)c3ccc(-c4nc5ccccc5s4)cc3[n+]2CC)N(c2ccccc2)c2ccc(-c3nc4ccccc4s3)cc21 returns the recorded outcome of this test.
## Output yes (1)

## Input How did this test come out for CC(C)(O)C#Cc1ccc(/C=C/C(=O)c2ccccc2)s1 ?
## Output no (0)

## Input GET /call?item= c1ccc(C2CC(c3cccc(Nc4ccncc4)c3)=NN2c2ccccc2)cc1 (stereo not given) returns the recorded outcome of this test.
## Output no (0)

## Input # fetch the recorded call for CC(C)c1c(C(=O)Nc2ccccc2)c(-c2ccccc2)c(-c2ccc(F)cc2)n1CC[C@@H]1CC=CC(=O)O1 here
## Output no (0)

* * *

- Tested on: NCI-H522 lung
- testDetails: NCI tumour cell line growth inhibition, 48 h; in the data active = GI50 below about 0.43 µM; inactive = the rest
Return exactly one item of true (1) = active, false (0) = inactive

## Input Which result was noted for this compound in the test: O=c1c2ccccc2c(Br)c(Br)c2ccccc12
## Output false (0)

## Input For COc1cc(-n2cc(-c3ccc(F)cc3)nc2SCc2ccccc2)cc(OC)c1OC , what call appears in the results of this test?
## Output false (0)

## Input Entry CC(=O)N1N=C(c2ccc(Nc3nc(Nc4ccc(Cl)cc4)nc(Nc4ccc(Cl)cc4)n3)cc2)CC1c1ccc([N+](=O)[O-])cc1 (stereo not drawn) : call = ?
## Output false (0)

## Input Check the results log: what was the call for CN(c1cc2ncc(=O)[nH]c2cc1NC(N)=NCc1ccc(Cl)cc1)C1CCCCC1 ?
## Output false (0)

## Input Record lookup: outcome of this test for Cn1cc(C2=C(c3cn(CCO)c4ccccc34)C(=O)NC2=O)c2ccccc21 ?
## Output false (0)

## Input # fetch the recorded call for S=C(N/N=C(/c1ccccc1)c1ccccn1)N1CCCCC1 here
## Output true (1)

## Input Recorded test outcome, item O=c1cc(-c2ccccc2)oc2cc(O)c(O)c(O)c12
## Output false (0)

## Input How was CC(C)Nc1ccc(Nc2ccccc2)cc1 classified in this test?
## Output false (0)

* * *

- System: DU-145 prostate
- testDetails: NCI tumour cell line growth inhibition, 48 h
assayReadout: TGI

## Input Returns the measured TGI for the input molecule. Input: C=[N+](CNC(=O)CNC(=O)C(Cc1ccc([N+](=O)[O-])cc1)NC(=O)OC(C)(C)C)C(=O)CNC(=O)C(Cc1ccc([N+](=O)[O-])cc1)NC(=O)OC(C)(C)C (stereo unspecified)
## Output > 100 µM

## Input Form field: reported TGI of Cc1nc(-c2ccccc2)c(Cc2ccccc2O)c(=O)[nH]1
## Output > 100 µM

## Input Param item = O=C(Nc1ccccc1)c1nn(-c2cc(S(=O)(=O)O)c([N+](=O)[O-])cc2Cl)[n+](-c2cc(S(=O)(=O)[O-])c([N+](=O)[O-])cc2Cl)n1 ; retrieve measured TGI.
## Output > 100 µM

## Input Name the reported TGI value associated with the molecule O=[N+]([O-])c1ccc(-c2nc3ccc([N+](=O)[O-])cc3[nH]2)cc1
## Output > 100 µM

## Input # get_value(readout='TGI', item= O=[N+]([O-])c1ccc2[nH]nc(OCc3ccccn3)c2c1 )
## Output > 100 µM

## Input Look up TGI for this molecule: CC(C)C[C@H](NC(=O)[C@H](Cc1ccccc1)NC(=O)CCc1ccccc1)B(O)O
## Output < 0.01 µM

## Input Give its TGI value. Item: CC(=O)O[C@@]12CO[C@@H]1C[C@H](O)[C@@]1(C)C(=O)[C@H](O)C3=C(C)[C@@H](OC(=O)[C@H](O)[C@@H](NC(=O)OC(C)(C)C)c4ccccc4)C[C@@](O)([C@@H](OC(=O)c4ccccc4)[C@H]21)C3(C)C
## Output 78.2 µM

## Input Fill in: TGI of C=C1[C@H](OC(=O)C(C)C)[C@]23CC4(O)[C@@H]5[C@@]6(C)CCC[C@]57C([C@@H]2C[C@@]1(O)[C@H](O)[C@@H]73)N4C6 is ___
## Output > 100 µM

## Input GET /values?readout=TGI&item= CC1=NNC(=O)C1C1CC(c2c[nH]c3ccccc23)=NNC1=S (stereo unspecified)
## Output > 100 µM

## Input Form field: reported TGI of CCOC(=O)C1C(c2ccc(OC)cc2)c2c([nH]n(-c3ccccc3)c2=O)CC1(O)OCC (stereo unspecified)
## Output > 100 µM

## Input May I ask what TGI has been recorded for O=C1C2C(C(=O)[N]1[Hg][c]1cccs1)C1(Cl)C(Cl)=C(Cl)C2(Cl)C1(Cl)Cl (stereo unspecified) ?
## Output 4.72 µM

## Input Given the molecule O=C1CC(c2cccc(O)c2)C2(C(=O)NC(=S)NC2=O)C(c2cccc(O)c2)C1 (stereo unspecified) , what is its reported TGI?
## Output > 100 µM

## Input So what's the measured TGI for this one? N/C(=C\C(=O)n1nc(-c2ccccc2)cc1N)c1ccccc1
## Output 27.7 µM

## Input Would you kindly share the measured TGI for CCCCOc1ccc(NC(=O)n2nc(N)c3ccccc32)cc1 ?
## Output 70 µM

## Input Entry CC(=O)c1c(SCCN2CCCC2)n(-c2ccccc2)c(=S)n(-c2ccccc2)c1=O has what TGI?
## Output 8.85 µM

## Input GET /values?readout=TGI&item= N#Cc1c2c(c(Nc3cccc(C(F)(F)F)c3)n3c1nc1ccccc13)CCC2
## Output > 100 µM

* * *

- Tested on: MDA-MB-435
- testDetails: NCI tumour cell line growth inhibition, 48 h
assayReadout: TGI (µM)
Write down the numeric answer in µM and omit the unit.

## Input GET /values?readout=TGI&item= COc1cc(-c2nc3sccn3c2-c2ccnc(NCCNS(=O)(=O)c3ccc(Cl)cc3)n2)ccc1F
## Output 58.1

## Input Which TGI is listed for Cc1cc2cc3cc(C)c(N(C)C)cc3[n+](C)c2cc1N(C)C ?
## Output 14.9

## Input What does the data say about its TGI? Entry: COc1ccc(C2CC(c3cccc(Nc4ccncc4)c3)=NN2c2ccc(Cl)cc2)cc1 (centres undefined)
## Output 3.05

## Input For the compound O=C1C2C(C(=O)[N]1[Hg][c]1cccs1)C1(Cl)C(Cl)=C(Cl)C2(Cl)C1(Cl)Cl (centres undefined) , what TGI is on record?
## Output 3.05

## Input Consider the compound COc1cc2c(cc1O)-c1c(cnn1-c1ccc([N+](=O)[O-])cc1)CCC2 and give its measured TGI.
## Output 48.6

Reference source for all entries: PubChem BioAssay (NCI)
